Hello, the source for this data is paper PMC5911580, in case you need it.

assay: Pharmacokinetic study in SD rats; assay type: in vivo, rat; settings: Sprague-Dawley, rat, plasma, iv, I.V. 5 mg/Kg
Assay readout: Tmax (min)
Kindly provide the numeric value in min only, without the unit symbol.

Exam item: Form field: reported Tmax of C=CC(=O)Nc1cc(C)cc(-n2c(=O)cc(C)c3cnc(Nc4ccc(N5CCN(C)CC5)cc4OC)nc32)c1
Marked response: 4.8

* * *

experiment: Pharmacokinetic study in SD rats; type: in vivo, rat; settings: Sprague-Dawley, rat, plasma, oral, 25 mg/kg, P.O. 25 mg/Kg vs I.V. 5 mg/Kg, read-out: BA (oral bioavailability)
Assay readout: bioavailability

Exam item: Form field: reported bioavailability of C=CC(=O)Nc1cc(C)cc(-n2c(=O)cc(C)c3cnc(Nc4ccc(N5CCN(C)CC5)cc4OC)nc32)c1
Marked response: 25%

* * *

Target: EGFR^Del 19 (Homo sapiens, UniProt P00533, DEL746-750)
Sequence (P00533 with tags, fused parts or gaps DEL746-750): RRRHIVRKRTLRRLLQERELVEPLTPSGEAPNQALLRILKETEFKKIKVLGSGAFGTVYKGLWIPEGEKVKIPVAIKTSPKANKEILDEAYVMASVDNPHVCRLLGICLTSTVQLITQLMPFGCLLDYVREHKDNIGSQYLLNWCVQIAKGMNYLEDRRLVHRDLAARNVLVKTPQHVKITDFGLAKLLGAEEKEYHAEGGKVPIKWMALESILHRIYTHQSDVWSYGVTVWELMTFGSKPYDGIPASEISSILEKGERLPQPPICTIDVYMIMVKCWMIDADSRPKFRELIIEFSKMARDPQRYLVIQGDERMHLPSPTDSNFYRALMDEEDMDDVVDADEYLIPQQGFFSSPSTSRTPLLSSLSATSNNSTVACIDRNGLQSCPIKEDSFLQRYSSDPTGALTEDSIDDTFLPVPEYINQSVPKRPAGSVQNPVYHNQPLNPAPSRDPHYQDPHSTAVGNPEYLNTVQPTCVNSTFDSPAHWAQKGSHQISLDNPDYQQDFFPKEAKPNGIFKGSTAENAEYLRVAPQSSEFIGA
Assay: FRET-based Z'-Lyte kinase assay, EGFR Del 19
Settings: AV ± SD; 1.5 h incubation
Protocol: The kinase activity assay was performed and optimized according to the instructions of Z’‐LYTE™ kinase assay kits from the manufacturer (PV4879, Life, America). In our experiments, 10 concentration gradients from 0.01 nmol/L to 1.0 μmol/L were used for all the compounds.
Assay readout: pIC50
Worth noting: pIC50 values are minus log10 of concentrations stated in mol/L.

Exam item: Form field: reported pIC50 of C=CC(=O)Nc1cc(C)cc(-n2c(=O)cc(C)c3cnc(Nc4ccc(N5CCN(C)CC5)cc4OC)nc32)c1
Marked response: 7.09

* * *

Experiment: Pharmacokinetic study in SD rats
Type: in vivo, rat
Conditions: Sprague-Dawley, rat, plasma, iv, I.V. 5 mg/Kg
Method: Sprague Dawley (SD) rats (180–220 g) were fasted overnight before drug administration. They could eat food and drink water freely during the study. Rats were grouped and treated with 25 and 5 mg/kg of YL143 in vehicle via oral gavage and i.v., respectively. […] Drug concentration was quantitatively detected using an API 300 mass spectrometer (Applied Biosystems, Canada) with TurboIonSpray source interface. Data acquisition and quantitation were performed using Analyst 1.4 (Applied Biosystems, Canada). […]
Assay readout: Cmax (ng/mL)
Kindly provide the numeric value in ng/mL only, without the unit symbol.

Exam item: Form field: reported Cmax of C=CC(=O)Nc1cc(C)cc(-n2c(=O)cc(C)c3cnc(Nc4ccc(N5CCN(C)CC5)cc4OC)nc32)c1
Marked response: 3270

* * *

assay: Pharmacokinetic study in SD rats; format: in vivo, rat; conditions: Sprague-Dawley, rat, plasma, po, P.O. 25 mg/Kg
Assay readout: Cmax (ng/mL)
Kindly provide the numeric value in ng/mL only, without the unit symbol.

Exam item: Form field: reported Cmax of C=CC(=O)Nc1cc(C)cc(-n2c(=O)cc(C)c3cnc(Nc4ccc(N5CCN(C)CC5)cc4OC)nc32)c1
Marked response: 160

* * *

biological target: AKT2 (Homo sapiens, UniProt P31751)
Sequence (P31751 whole entry, species assumed): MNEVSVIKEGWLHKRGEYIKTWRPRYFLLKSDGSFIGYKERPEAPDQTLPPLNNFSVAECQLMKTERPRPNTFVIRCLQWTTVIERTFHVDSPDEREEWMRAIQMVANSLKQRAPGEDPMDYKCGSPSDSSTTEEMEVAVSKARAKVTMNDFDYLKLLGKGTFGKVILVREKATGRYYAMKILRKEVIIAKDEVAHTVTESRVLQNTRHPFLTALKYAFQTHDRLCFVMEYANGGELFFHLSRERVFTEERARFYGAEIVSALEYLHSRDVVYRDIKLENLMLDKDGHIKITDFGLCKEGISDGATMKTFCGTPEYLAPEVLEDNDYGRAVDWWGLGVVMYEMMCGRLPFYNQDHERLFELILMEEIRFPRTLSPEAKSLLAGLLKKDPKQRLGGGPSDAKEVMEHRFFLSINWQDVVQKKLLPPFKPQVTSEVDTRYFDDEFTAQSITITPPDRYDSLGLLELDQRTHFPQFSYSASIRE
pIC50: −log10 of the molar value.
Assay readout: pIC50

Exam item: Param readout= pIC50; system= AKT2 (Homo sapiens, UniProt P31751); entry= C=CC(=O)Nc1cc(C)cc(-n2c(=O)cc(C)c3cnc(Nc4ccc(N5CCN(C)CC5)cc4OC)nc32)c1 ; returns value.
Marked response: < 5.00

* * *

Assay: Pharmacokinetic study in SD rats
Assay type: in vivo, rat
Settings: Sprague-Dawley, rat, plasma, po, P.O. 25 mg/Kg
Method: Sprague Dawley (SD) rats (180–220 g) were fasted overnight before drug administration. They could eat food and drink water freely during the study. Rats were grouped and treated with 25 and 5 mg/kg of YL143 in vehicle via oral gavage and i.v., respectively. […] Drug concentration was quantitatively detected using an API 300 mass spectrometer (Applied Biosystems, Canada) with TurboIonSpray source interface. Data acquisition and quantitation were performed using Analyst 1.4 (Applied Biosystems, Canada). […]
Assay readout: AUC(0-inf) (µg·h/mL)
Kindly provide the numeric value in µg·h/mL only, without the unit symbol.

Exam item: Form field: reported AUC(0-inf) of C=CC(=O)Nc1cc(C)cc(-n2c(=O)cc(C)c3cnc(Nc4ccc(N5CCN(C)CC5)cc4OC)nc32)c1
Marked response: 2.34

* * *

biological target: PDGFRB (Homo sapiens)
Sequence (P09619 33-1106, species assumed): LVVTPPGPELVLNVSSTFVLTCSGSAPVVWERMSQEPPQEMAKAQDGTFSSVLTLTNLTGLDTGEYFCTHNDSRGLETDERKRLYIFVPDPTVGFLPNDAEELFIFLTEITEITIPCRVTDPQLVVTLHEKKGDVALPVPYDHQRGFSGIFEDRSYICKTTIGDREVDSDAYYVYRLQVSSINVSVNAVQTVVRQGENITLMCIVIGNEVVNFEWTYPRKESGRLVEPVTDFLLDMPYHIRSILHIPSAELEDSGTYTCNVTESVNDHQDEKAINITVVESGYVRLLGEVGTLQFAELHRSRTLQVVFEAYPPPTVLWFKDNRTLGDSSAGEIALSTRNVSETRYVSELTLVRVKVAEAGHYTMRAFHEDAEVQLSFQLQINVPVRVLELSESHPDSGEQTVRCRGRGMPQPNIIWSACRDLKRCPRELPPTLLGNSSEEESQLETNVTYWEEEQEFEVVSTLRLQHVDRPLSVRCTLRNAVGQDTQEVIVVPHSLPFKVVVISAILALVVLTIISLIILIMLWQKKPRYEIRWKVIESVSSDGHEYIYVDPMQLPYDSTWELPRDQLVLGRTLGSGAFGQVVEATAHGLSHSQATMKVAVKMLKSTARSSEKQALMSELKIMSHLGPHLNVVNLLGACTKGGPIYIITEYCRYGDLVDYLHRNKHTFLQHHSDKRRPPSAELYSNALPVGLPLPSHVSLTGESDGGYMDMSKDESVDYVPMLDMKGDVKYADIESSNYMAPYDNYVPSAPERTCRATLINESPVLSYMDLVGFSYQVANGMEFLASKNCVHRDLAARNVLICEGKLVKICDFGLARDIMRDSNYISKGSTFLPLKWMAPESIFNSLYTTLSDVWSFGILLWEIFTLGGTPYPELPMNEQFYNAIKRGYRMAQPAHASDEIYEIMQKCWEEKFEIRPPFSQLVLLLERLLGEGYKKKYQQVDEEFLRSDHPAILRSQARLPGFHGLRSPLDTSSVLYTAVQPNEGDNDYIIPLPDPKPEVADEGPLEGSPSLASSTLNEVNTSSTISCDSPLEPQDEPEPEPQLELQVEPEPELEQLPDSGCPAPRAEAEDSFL
pIC50: −log10 of the molar value.
Assay readout: pIC50

Exam item: Param readout= pIC50; system= PDGFRB (Homo sapiens); entry= C=CC(=O)Nc1cc(C)cc(-n2c(=O)cc(C)c3cnc(Nc4ccc(N5CCN(C)CC5)cc4OC)nc32)c1 [YL143] ; returns value.
Marked response: < 5.00

* * *

assay: Pharmacokinetic study in SD rats; type: in vivo, rat; settings: Sprague-Dawley, rat, plasma, single oral dosing 25 mg/kg
Assay readout: Cmax (nM)
Kindly provide the numeric value in nM only, without the unit symbol.

Exam item: Form field: reported Cmax of C=CC(=O)Nc1cc(C)cc(-n2c(=O)cc(C)c3cnc(Nc4ccc(N5CCN(C)CC5)cc4OC)nc32)c1 [YL143]
Marked response: 297

* * *

biological target: TRKA (Homo sapiens, UniProt P04629)
Sequence (P04629 33-796, species assumed): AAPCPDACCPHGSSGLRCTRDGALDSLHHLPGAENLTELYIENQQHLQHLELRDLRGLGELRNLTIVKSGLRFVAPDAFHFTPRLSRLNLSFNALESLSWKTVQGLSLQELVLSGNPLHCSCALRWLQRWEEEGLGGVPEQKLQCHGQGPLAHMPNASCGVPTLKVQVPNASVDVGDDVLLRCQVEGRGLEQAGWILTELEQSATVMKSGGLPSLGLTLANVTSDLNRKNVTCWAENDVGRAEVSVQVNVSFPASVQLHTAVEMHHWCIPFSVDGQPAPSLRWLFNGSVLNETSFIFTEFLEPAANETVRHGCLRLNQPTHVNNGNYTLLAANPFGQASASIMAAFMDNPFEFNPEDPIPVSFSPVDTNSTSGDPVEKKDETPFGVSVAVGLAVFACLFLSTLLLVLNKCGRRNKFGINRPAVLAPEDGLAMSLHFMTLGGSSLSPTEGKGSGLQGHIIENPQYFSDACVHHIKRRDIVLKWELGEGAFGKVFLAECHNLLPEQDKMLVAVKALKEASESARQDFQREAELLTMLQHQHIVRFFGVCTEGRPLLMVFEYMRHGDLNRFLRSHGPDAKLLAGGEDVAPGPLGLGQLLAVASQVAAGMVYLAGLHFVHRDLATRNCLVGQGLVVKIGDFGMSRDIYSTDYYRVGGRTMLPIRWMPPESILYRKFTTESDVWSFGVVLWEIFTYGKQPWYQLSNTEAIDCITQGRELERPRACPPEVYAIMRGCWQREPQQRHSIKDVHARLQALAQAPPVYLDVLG
pIC50: −log10 of the molar value.
Assay readout: pIC50

Exam item: Param readout= pIC50; system= TRKA (Homo sapiens, UniProt P04629); entry= C=CC(=O)Nc1cc(C)cc(-n2c(=O)cc(C)c3cnc(Nc4ccc(N5CCN(C)CC5)cc4OC)nc32)c1 [YL143] ; returns value.
Marked response: < 5.00
